Biological target: T1, human CD20 antigen (human, UniProt P11836 1-297)
T1 sequence (looked up): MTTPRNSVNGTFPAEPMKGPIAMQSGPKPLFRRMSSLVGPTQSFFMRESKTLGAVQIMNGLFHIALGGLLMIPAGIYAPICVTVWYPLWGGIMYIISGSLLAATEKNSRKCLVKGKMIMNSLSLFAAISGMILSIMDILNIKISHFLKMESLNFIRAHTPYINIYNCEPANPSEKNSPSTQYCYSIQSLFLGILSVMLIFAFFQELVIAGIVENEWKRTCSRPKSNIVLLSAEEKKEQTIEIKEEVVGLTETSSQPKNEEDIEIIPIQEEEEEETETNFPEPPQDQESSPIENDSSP
Assay: cell-based or functional assay

>  <binder>
humanized 1K1791 antibody sf (SdrL x FraH) (antibody, V domains shown, Kappa, gamma 1 construct; also called hz1791 sf; Sf043) VH: QIQLVQSGSELKKPGASVKVSCKASGYTFTNFGVNWVKQAPGKGLKWMGWINTYTGEPSYADDFKGRFAFSLDASASTAYLQISSLKAEDMATYFCTRRTNYYGTSYYYAMDYWGQGTTVTVSS VL: STVMTQSPDSLAVSLGERATINCKSSQSNSNDVAWYQQKPGQSPKVLIYFASNRYSGVPDRFSGSGYGTDFTLTISSLQAEDVAVYFCQQDYSSPLTFGAGTKLEIK

>  <Apoptosis (5 ug/ml), RAJI>
205 relative, m2B8 = 100

$$$$
>  <binder>
humanized 1K1791 antibody fv (FraL x VenH) (antibody, V domains shown, Kappa, gamma 1 construct; also called hz1791 fv; Fv010) VH: QIQLVQSGPELKKPGASVKISCKASGYTFTNFGVNWVKQAPGKGLKWMGWINTYTGEPSYADDFKGRFAFSLDASVSTAYLQISSLKAEDTSTYFCTRRTNYYGTSYYYAMDYWGQGTTVTVSS VL: STVMTQSPSFLSASVGDRVTITCKASQSVSNDVAWYQQKPGQSPKVLIYFASNRYTGVPDRFSGSGYGTDFTLTISSLQAEDVAVYFCQQDYSSPLTFGAGTKLEIK

>  <Apoptosis (5 ug/ml), RAJI>
88 relative, m2B8 = 100

$$$$
>  <binder>
humanized 1K1791 antibody ss (SdrL x SdrH) (antibody, V domains shown, Kappa, gamma 1 construct; also called hz1791 ss; Ss020) VH: QIQLVQSGSELKKPGASVKVSCKASGYTFTNFGVNWVRQAPGKGLKWMGWINTYTGEPSYAQGFTGRFAFSLDASVSTAYLQISSLKAEDTATYFCTRRTNYYGTSYYYAMDYWGQGTTVTVSS VL: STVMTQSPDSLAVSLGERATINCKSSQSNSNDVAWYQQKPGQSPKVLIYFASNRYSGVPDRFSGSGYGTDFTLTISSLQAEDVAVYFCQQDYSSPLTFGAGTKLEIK

>  <Apoptosis (5 ug/ml), RAJI>
202 relative, m2B8 = 100

$$$$
>  <binder>
humanized 1K1791 antibody ff (FraL x FraH) (antibody, V domains shown, Kappa, gamma 1 construct; also called hz1791 ff; Ff019) VH: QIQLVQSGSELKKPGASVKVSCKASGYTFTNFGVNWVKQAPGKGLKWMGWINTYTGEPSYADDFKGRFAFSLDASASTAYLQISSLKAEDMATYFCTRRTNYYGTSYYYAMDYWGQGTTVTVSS VL: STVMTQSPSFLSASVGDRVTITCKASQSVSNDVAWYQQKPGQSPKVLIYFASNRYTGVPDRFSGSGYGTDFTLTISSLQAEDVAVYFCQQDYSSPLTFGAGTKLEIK

>  <Apoptosis (5 ug/ml), RAJI>
84 relative, m2B8 = 100

$$$$
